Origin of values: patent US11981658B2

Biological target: EGFR L858R/T790M/C797S (Homo sapiens, UniProt P00533, C797S/L858R/T790M)
Sequence (P00533 25-1210 T790M/C797S/L858R): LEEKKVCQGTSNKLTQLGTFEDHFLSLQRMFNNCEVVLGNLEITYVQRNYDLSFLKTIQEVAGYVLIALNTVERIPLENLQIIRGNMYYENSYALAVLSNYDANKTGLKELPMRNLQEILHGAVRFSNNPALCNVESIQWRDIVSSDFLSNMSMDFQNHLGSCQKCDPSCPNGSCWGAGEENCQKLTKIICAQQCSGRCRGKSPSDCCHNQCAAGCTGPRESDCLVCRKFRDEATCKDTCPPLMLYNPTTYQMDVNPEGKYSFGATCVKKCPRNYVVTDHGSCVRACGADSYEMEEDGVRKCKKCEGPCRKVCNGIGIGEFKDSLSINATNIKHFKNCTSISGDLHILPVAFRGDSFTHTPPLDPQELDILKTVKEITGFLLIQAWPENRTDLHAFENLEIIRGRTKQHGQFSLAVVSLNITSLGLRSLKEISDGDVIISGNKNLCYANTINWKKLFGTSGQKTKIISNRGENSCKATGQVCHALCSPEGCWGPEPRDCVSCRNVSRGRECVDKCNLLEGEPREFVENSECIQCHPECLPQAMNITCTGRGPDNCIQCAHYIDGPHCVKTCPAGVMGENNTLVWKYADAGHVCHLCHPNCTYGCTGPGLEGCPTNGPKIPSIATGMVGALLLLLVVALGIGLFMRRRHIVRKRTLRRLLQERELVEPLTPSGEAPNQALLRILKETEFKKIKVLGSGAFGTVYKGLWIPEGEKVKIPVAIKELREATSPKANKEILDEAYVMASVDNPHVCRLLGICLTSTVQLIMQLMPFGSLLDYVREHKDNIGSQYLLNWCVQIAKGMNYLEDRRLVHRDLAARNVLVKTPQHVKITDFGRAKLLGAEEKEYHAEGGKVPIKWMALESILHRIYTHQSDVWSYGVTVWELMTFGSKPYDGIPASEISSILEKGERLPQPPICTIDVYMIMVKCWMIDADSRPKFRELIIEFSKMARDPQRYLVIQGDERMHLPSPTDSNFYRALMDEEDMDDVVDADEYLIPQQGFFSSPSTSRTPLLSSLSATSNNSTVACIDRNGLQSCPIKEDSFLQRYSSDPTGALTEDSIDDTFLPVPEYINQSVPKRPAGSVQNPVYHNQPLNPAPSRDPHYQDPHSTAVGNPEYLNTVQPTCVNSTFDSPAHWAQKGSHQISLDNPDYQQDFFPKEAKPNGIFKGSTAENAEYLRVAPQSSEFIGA
Test: Biochemical EGFR kinase inhibition assay (Lance Ultra TR-FRET), triple mutant L858R/T790M/C797S
Settings: ATP at Km; read-out: IC50 L858R/T790M/C797S (nM), Km ATP
Counter-ions that a name gives are not always drawn.
readout.label: log10 of IC50 (log10 of the value in nM)

[[record]]
compound = "O=S(=O)(C1CC1)n1cc(-c2nccc(Nc3cc(N[C@@H]4CCC[C@H](O)C4)c(C#Cc4ccc(CN5CCOCC5)cc4)cn3)n2)cn1"
observed_measurement = 0.40

[[record]]
compound = "CN(C)Cc1ccc(C#Cc2cnc(Nc3ccnc(-c4cnn(S(=O)(=O)C5CC5)c4)n3)cc2N2CCC(C)(CO)CC2)cn1"
observed_measurement = -1.00

[[record]]
compound = "CC1(CO)CCN(c2cc(Nc3ccnc(-c4cnn(S(=O)(=O)C5CC5)c4)n3)ncc2C#Cc2ccc(CN3CCOCC3)s2)CC1"
observed_measurement = 0.18

[[record]]
compound = "Cn1cc(C#Cc2cnc(Nc3ccnc(Nc4ccccc4S(C)(=O)=O)n3)cc2N2CCC(C)(CO)CC2)cn1"
observed_measurement = 0.20

[[record]]
compound = "CN(C)CCC1CCN(c2cc(Nc3ccnc(-c4cnn(S(=O)(=O)C5CC5)c4)n3)ncc2C#Cc2cnn(C)c2)CC1 [Example 294, formate]"
observed_measurement = -1.00

[[record]]
compound = "CN(C)C[C@H]1CC[C@@H](Nc2cc(Nc3ccnc(-c4cnn(S(=O)(=O)C5CC5)c4)n3)ncc2C#Cc2cnn(C(F)(F)F)c2)CC1"
observed_measurement = -0.70

[[record]]
compound = "CN(C)C(=O)c1ccc(C#Cc2cnc(Nc3ccnc(-c4cnn(S(=O)(=O)C5CC5)c4)n3)cc2N2CCC(C)(CO)CC2)cc1"
observed_measurement = -0.40


====

Target: EGFR L858R/C797S (Homo sapiens, UniProt P00533, C797S/L858R)
Sequence (P00533 25-1210 C797S/L858R): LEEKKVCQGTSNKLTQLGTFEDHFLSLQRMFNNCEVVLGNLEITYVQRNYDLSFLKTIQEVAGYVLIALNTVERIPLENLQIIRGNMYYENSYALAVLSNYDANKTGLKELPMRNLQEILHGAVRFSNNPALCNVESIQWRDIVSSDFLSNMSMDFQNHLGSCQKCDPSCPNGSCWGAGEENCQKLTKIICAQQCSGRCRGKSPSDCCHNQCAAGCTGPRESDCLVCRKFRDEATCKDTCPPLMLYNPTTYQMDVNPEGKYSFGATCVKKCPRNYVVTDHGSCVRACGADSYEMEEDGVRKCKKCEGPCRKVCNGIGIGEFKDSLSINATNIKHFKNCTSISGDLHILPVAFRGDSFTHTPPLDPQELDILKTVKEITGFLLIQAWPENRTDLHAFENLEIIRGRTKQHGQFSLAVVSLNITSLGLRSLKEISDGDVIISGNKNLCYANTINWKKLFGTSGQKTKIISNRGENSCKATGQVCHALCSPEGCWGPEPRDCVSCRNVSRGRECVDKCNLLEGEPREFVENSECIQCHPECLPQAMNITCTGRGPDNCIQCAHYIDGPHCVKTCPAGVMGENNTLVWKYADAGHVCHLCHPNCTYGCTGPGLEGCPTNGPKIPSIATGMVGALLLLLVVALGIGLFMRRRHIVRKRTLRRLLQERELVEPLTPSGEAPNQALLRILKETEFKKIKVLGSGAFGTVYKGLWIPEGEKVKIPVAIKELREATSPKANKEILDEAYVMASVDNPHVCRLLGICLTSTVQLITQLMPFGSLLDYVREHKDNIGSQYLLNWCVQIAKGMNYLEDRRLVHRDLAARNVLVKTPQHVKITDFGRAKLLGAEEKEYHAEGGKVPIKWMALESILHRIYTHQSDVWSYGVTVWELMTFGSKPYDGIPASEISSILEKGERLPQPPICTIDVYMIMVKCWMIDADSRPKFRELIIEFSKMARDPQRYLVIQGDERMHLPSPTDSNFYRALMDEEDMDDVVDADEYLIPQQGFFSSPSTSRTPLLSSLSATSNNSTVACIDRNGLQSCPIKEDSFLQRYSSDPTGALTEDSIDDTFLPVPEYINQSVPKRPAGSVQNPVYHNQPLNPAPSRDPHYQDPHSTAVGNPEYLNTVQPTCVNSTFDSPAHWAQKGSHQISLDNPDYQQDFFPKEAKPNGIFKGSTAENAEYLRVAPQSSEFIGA
Experiment: Biochemical EGFR kinase inhibition assay (Lance Ultra TR-FRET), double mutant L858R/C797S
Settings: IC50 L858R/C797S (nM), 100 μM ATP
So basically: is IC50 under 100 nM? Then 1 (yes). Not under? Then 0 (no).

[[record]]
molecule = "CC1(CO)CCN(c2cc(Nc3ccnc(-c4cnn(S(=O)(=O)C5CC5)c4)n3)ncc2C#Cc2cnn(CC3CCOCC3)c2)CC1"
measurement_target = "EGFR L858R/C797S (Homo sapiens, UniProt P00533, C797S/L858R)"
assigned_label = "1 (yes)"

[[record]]
molecule = "Cn1cc(C#Cc2cnc(Nc3ccnc(-c4cnn(S(=O)(=O)C5CC5)c4)n3)cc2N2CCC(O)C(F)(F)C2)cn1 (stereo not shown)"
measurement_target = "EGFR L858R/C797S (Homo sapiens, UniProt P00533, C797S/L858R)"
assigned_label = "0 (no)"

[[record]]
molecule = "CS(=O)(=O)N1CCC(C#Cc2cnc(Nc3ccnc(-c4cnn(S(=O)(=O)C5CC5)c4)n3)cc2NCC2CCC(O)CC2)C1 (stereo not shown)"
measurement_target = "EGFR L858R/C797S (Homo sapiens, UniProt P00533, C797S/L858R)"
assigned_label = "0 (no)"

[[record]]
molecule = "CC1(CO)CCN(c2cc(Nc3ccnc(-c4cnn(S(=O)(=O)C5CC5)c4)n3)ncc2C#CC2(O)CCCCC2)CC1"
measurement_target = "EGFR L858R/C797S (Homo sapiens, UniProt P00533, C797S/L858R)"
assigned_label = "0 (no)"

[[record]]
molecule = "CC1(CO)CCN(c2cc(Nc3ccnc(-c4cnn(S(=O)(=O)C5CC5)c4)n3)ncc2C#CCNC(=O)C(F)(F)F)CC1"
measurement_target = "EGFR L858R/C797S (Homo sapiens, UniProt P00533, C797S/L858R)"
assigned_label = "1 (yes)"

[[record]]
molecule = "Cn1ncc(C#Cc2cnc(Nc3ccnc(-c4cnn(S(=O)(=O)C5CC5)c4)n3)cc2N2CCC(CCO)CC2)c1C1CC1"
measurement_target = "EGFR L858R/C797S (Homo sapiens, UniProt P00533, C797S/L858R)"
assigned_label = "1 (yes)"


====

Target: EGFR L858R/T790M/C797S (Homo sapiens, UniProt P00533, C797S/L858R/T790M)
Test: Biochemical EGFR kinase inhibition assay (Lance Ultra TR-FRET), triple mutant L858R/T790M/C797S
Settings: IC50 L858R/T790M/C797S (nM), 100 μM ATP
Reported IC50 values for a set of compounds
readout.label: IC50 (nM)

[[record]]
compound = "C[C@]1(O)CC[C@@H](Nc2cc(Nc3ccnc(-c4cnn(S(=O)(=O)C5CC5)c4)n3)ncc2C#Cc2cnn(CC(F)(F)F)c2)CC1"
observed_measurement = 5

[[record]]
compound = "Cn1cnc(C#Cc2cnc(Nc3ccnc(-c4cnn(S(=O)(=O)C5CC5)c4)n3)cc2N2CCC(O)CC2)n1"
observed_measurement = 4

[[record]]
compound = "CC1(CO)CCN(c2cc(Nc3ccnc(-c4cnn(S(=O)(=O)C5CC5)c4)n3)ncc2C#Cc2ccccn2)CC1"
observed_measurement = 0.5

[[record]]
compound = "CN(C)CCCn1cc(C#Cc2cnc(Nc3ccnc(-c4cnn(S(=O)(=O)C5CC5)c4)n3)cc2N2CCC(NCCF)CC2)cn1"
observed_measurement = 0.3

[[record]]
compound = "CC1(CO)CCN(c2cc(Nc3ccnc(-c4cnn(S(=O)(=O)C5CC5)c4)n3)ncc2C#C[Si](C)(C)C)CC1"
observed_measurement = 15.4

[[record]]
compound = "CN(C)CCC1CCN(c2cc(Nc3ccnc(-c4cnn(S(=O)(=O)C5CC5)c4)n3)ncc2C#CC2(C)CC2)CC1"
observed_measurement = 0.4

[[record]]
compound = "CC1(CO)CCN(c2cc(Nc3ccnc(-c4cnn(S(=O)(=O)C5CC5)c4)n3)ncc2C#Cc2cnn(CC3CCOC3)c2)CC1 (centres unmarked)"
observed_measurement = 1.8

[[record]]
compound = "O=C1CCN(c2cc(Nc3ccnc(-c4cnn(S(=O)(=O)C5CC5)c4)n3)ncc2C#Cc2cnn(C3CCOCC3)c2)CC1"
observed_measurement = 18.2

[[record]]
compound = "O=S(=O)(C1CC1)N1CCC(C#Cc2cnc(Nc3ccnc(-c4cnn(S(=O)(=O)C5CC5)c4)n3)cc2N[C@H]2CC[C@@H](CO)CC2)CC1"
observed_measurement = 8.3

[[record]]
compound = "O=S(=O)(C1CC1)n1cc(-c2nccc(Nc3cc(NC4CCC(O)CC4)c(C#CC4(O)CCOC4)cn3)n2)cn1 (centres unmarked)"
observed_measurement = 0.3

[[record]]
compound = "O=S(=O)(C1CC1)n1cc(-c2nccc(Nc3cc(N4CCCC(O)C4)c(C#Cc4cnn(CC(F)(F)F)c4)cn3)n2)cn1 (centres unmarked)"
observed_measurement = 3.1


====

Biological target: EGFR L858R/T790M/C797S (Homo sapiens, UniProt P00533, C797S/L858R/T790M)
Assay: Biochemical EGFR kinase inhibition assay (Lance Ultra TR-FRET), triple mutant L858R/T790M/C797S
Conditions: Km ATP; read-out: IC50 L858R/T790M/C797S (nM), Km ATP
readout.label: log10 of IC50 (log10 of the value in nM)

[[record]]
compound = "CC1(CO)CCN(c2cc(Nc3ccnc(-c4cnn(S(=O)(=O)C5CC5)c4)n3)ncc2C#CC2CCN(S(C)(=O)=O)CC2)CC1 [Example 389]"
observed_measurement = -1.00

[[record]]
compound = "CC1(O)CCN(c2cc(Nc3ccnc(-c4cnn(S(=O)(=O)C5CC5)c4)n3)ncc2C#CC2CC3CCC2O3)CC1 (stereo not drawn) [Example 424]"
observed_measurement = -0.70

[[record]]
compound = "O=S(=O)(C1CC1)n1cc(-c2nccc(Nc3cc(NC4CCC(O)CC4)c(C#CC4CCOC4C(F)(F)F)cn3)n2)cn1 (stereo not drawn) [Example 420]"
observed_measurement = -0.30

[[record]]
compound = "CN(C)CCC1CCCN(c2cc(Nc3ccnc(-c4cnn(S(=O)(=O)C5CC5)c4)n3)ncc2C#Cc2cnn(CCF)c2)C1 (stereo not drawn) [Example 386]"
observed_measurement = -1.00

[[record]]
compound = "O=S(=O)(C1CC1)n1cc(-c2nccc(Nc3cc(N4CCC[C@H](O)C4)c(C#Cc4cnn(C(F)(F)F)c4)cn3)n2)cn1 [Example 439]"
observed_measurement = 0.11

[[record]]
compound = "CC1(C#Cc2cnc(Nc3ccnc(-c4cnn(S(=O)(=O)C5CC5)c4)n3)cc2N[C@H]2CC[C@@H](O)CC2)CC1 [Example 359]"
observed_measurement = -0.40

